Each recorded value in this set is attributed to PubChem BioAssay (NCI).

# EXPERIMENTAL_DETAILS: NCI Yeast Anticancer Drug Screen. Data for the rad50EPP+ strain (AID 151)
# CONDITION_PARAMETERS: S. cerevisiae rad50 mutant strain, at 33.0 µM, stronger effect = higher value
Compounds without any hit were thinned out: in the full panel of roughly 79,000, 15% have a hit.
Could you label it rule met if measured growth inhibition is 30% or higher, and rule not met otherwise?

Answered examples (3):
[
  {
    "COMPOUND": "CCOC(=O)/C(=C\\c1ccc(C#N)cc1)C(C)=O",
    "LABEL_VALUE": "rule met"
  },
  {
    "COMPOUND": "O=C(NNc1ccccc1)c1ccc(Cl)c(Cl)c1",
    "LABEL_VALUE": "rule met"
  },
  {
    "COMPOUND": "CCCC/C=C/C(C)(C(=O)OCC)C(=O)OCC",
    "LABEL_VALUE": "rule not met"
  }
]

Hello, I need to know if `CN(C)CCNC(=O)c1cccc2cc([N+](=O)[O-])ccc12` has measured growth inhibition not below 30%. Thanks! rule met
